# ASSAY METHOD TEXT: self-splicing fitness, log relative to wild type (ln ratio); higher = more splicing; Tetrahymena group I intron in knt gene, E. coli kanamycin selection, DiMSum; sequences stand for … in CUCUCU…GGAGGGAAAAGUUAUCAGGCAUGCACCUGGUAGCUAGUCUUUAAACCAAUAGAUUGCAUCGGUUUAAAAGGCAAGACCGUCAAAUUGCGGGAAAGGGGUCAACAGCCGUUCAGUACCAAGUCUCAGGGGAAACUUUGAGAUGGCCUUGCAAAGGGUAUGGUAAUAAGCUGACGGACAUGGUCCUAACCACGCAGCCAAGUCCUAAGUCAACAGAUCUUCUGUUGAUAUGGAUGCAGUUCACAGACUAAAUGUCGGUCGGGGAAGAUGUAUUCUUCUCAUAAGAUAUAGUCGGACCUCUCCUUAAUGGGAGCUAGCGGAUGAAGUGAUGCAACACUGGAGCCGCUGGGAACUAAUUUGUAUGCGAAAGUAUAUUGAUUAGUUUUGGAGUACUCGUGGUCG;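 note: selection with 25 µg/mL kanamycin versus none on LB agar overnight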
# MEASUREMENT CONDITIONS: 30 °C
Cut-off -3 on self-splicing fitness (ln), inclusive. At or above means fulfilled; below means not fulfilled.

Solved cases below.
| RECORD SEQUENCE | CAT |
| --- | --- |
| UGCCAGCAAUAUUACGGGGG | not fulfilled |
| GUCCAGCAAUAUUACGGCUU | fulfilled |
| CAGCAGCAAUAUUACGGCGU | fulfilled |
| AUCAAGCAAUAUUACGUCGC | not fulfilled |
| CAGCAGCAAUAUUACGUUCG | fulfilled |
| GGGAAGCAAUAUUACGUUUG | fulfilled |

Determine whether this sequence has self-splicing fitness (ln) no lower than -3: AGAUAGCAAUAUUACGCAAG
fulfilled

Test whether the sequence GUGGAGCAAUAUUACGCUUU records self-splicing fitness (ln) of -3 or higher.
not fulfilled

Could you tell me if the measured self-splicing fitness (ln) of UACGAGCAAUAUUACGUUGC reaches -3 or more?
not fulfilled

---

# ASSAY METHOD TEXT: self-splicing fitness, log relative to wild type (ln ratio); higher = more splicing; Tetrahymena group I intron in knt gene, E. coli kanamycin selection, DiMSum; sequences stand for … in CUCUCU…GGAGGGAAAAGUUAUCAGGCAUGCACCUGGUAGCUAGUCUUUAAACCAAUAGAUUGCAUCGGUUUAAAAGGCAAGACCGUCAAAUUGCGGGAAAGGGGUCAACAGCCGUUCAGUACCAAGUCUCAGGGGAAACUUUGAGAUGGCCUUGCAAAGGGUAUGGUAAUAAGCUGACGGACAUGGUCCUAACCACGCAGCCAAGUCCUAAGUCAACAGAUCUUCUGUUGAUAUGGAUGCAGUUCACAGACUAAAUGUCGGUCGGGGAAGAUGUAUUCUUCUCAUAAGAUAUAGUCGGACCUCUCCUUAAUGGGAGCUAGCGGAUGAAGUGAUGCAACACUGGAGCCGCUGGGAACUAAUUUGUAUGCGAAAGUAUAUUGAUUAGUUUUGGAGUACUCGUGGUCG
# MEASUREMENT CONDITIONS: 37 °C
# if value of self-splicing fitness (ln) reaches -0.7, tag fulfilled; if it stays below, tag not fulfilled

Study these solved cases before continuing.
| RECORD SEQUENCE | CAT |
| --- | --- |
| AAUUAGCAAUAUUACGAGUC | not fulfilled |
| AGAAAGCAAUAUUACGUGGG | not fulfilled |
| CAUGAGCAAUAUUACGAACA | not fulfilled |
| UGUAAGCAAUAUUACGACCA | fulfilled |
| CAGCAGCAAUAUUACGGCUC | fulfilled |
| CACGAGCAAUAUUACGGAAG | not fulfilled |
| GAACAGCAAUAUUACGAGUC | not fulfilled |
| CUAUAGCAAUAUUACGCUAG | not fulfilled |
| UACGAGCAAUAUUACGUAUU | not fulfilled |
| CCAAAGCAAUAUUACGGUCC | not fulfilled |

Hello, I need to know if AGCUAGCAAUAUUACGUGCA has measured self-splicing fitness (ln) not below -0.7. Thanks!
fulfilled

Please indicate if the recorded self-splicing fitness (ln) for UAACAGCAAUAUUACGGCUC meets or exceeds -0.7.
not fulfilled

Answer whether self-splicing fitness (ln) of GAAUAGCAAUAUUACGUUUA is greater than or equal to -0.7.
not fulfilled

Identify whether the reported self-splicing fitness (ln) of the following sequence is -0.7 or greater: GUGAAGCAAUAUUACGAGCG
fulfilled

Would you say GGAAAGCAAUAUUACGUUGC shows self-splicing fitness (ln) at minimum -0.7?
not fulfilled

---

We begin with a simple list: items and their reported self-splicing fitness (ln).
# ASSAY METHOD TEXT: self-splicing fitness, log relative to wild type (ln ratio); higher = more splicing; Tetrahymena group I intron in knt gene, E. coli kanamycin selection, DiMSum; sequences stand for … in CUCUCU…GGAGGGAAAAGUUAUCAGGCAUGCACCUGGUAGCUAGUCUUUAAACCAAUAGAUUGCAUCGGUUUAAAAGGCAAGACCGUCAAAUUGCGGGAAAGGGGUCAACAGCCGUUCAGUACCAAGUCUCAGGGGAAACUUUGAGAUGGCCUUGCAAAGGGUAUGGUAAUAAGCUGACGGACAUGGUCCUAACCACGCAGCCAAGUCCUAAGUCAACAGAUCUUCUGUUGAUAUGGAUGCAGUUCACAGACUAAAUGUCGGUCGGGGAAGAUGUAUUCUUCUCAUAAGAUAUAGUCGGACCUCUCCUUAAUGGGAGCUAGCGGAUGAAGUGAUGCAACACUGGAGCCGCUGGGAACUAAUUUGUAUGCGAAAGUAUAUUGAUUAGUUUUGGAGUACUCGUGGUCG
# MEASUREMENT CONDITIONS: 30 °C
Respond with the number and no other words.

Study these solved cases before continuing.
| RECORD SEQUENCE | self-splicing fitness (ln) |
| --- | --- |
| UCAGAGCAAUAUUACGCAAU | -2.77 |
| AAAAAGCAAUAUUACGUCGU | -1.5 |
| UACAAGCAAUAUUACGACAA | -0.986 |
| AGUUAGCAAUAUUACGACCC | -0.338 |

For UGGUAGCAAUAUUACGUGCU , what is its reported self-splicing fitness (ln)?
-2

# self-splicing fitness (ln) lookup, item UCUUAGCAAUAUUACGCGCU
-3.3

---

# ASSAY METHOD TEXT: self-splicing fitness, log relative to wild type (ln ratio); higher = more splicing; Tetrahymena group I intron in knt gene, E. coli kanamycin selection, DiMSum; sequences stand for … in CUCUCU…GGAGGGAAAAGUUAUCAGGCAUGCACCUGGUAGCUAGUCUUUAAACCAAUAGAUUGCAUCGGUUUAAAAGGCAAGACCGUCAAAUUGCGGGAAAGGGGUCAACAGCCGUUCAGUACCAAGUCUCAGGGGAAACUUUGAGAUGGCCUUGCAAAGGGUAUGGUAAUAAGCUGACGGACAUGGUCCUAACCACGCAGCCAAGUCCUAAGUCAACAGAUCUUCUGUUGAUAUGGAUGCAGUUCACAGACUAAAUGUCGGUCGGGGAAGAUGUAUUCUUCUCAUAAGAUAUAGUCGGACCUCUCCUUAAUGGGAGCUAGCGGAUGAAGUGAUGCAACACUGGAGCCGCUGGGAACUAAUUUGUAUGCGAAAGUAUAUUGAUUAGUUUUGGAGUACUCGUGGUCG
# MEASUREMENT CONDITIONS: 37 °C
QUANTITY: self-splicing fitness (ln)
// print number alone

# example entries with known answers
| RECORD SEQUENCE | self-splicing fitness (ln) |
| --- | --- |
| AACGAGCAAUAUUACGACAA | -0.872 |
| ACGCAGCAAUAUUACGGGUU | -1.92 |
| GGCUAGCAAUAUUACGCCCU | 0.0828 |
| AGAAAGCAAUAUUACGAUAA | -0.539 |
| CAUGAGCAAUAUUACGGAGG | -2.16 |

# next sequence below
Sample AAAGAGCAAUAUUACGGUUA — what was its self-splicing fitness (ln)?
-2.06

---

# ASSAY METHOD TEXT: self-splicing fitness, log relative to wild type (ln ratio); higher = more splicing; Tetrahymena group I intron in knt gene, E. coli kanamycin selection, DiMSum; sequences stand for … in CUCUCU…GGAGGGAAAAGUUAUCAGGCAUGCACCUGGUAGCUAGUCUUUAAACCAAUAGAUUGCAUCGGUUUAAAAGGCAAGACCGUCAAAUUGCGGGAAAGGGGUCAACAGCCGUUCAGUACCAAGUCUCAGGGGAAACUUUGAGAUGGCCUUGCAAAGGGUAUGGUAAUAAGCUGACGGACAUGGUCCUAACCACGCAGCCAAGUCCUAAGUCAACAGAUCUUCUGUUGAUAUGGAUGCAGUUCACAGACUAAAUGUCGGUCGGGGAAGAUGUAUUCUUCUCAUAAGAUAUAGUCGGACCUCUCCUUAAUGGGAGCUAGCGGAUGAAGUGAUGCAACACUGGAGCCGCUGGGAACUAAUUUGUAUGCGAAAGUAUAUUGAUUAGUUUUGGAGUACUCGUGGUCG
# MEASUREMENT CONDITIONS: 37 °C
QUANTITY: self-splicing fitness (ln)
# print the numeric value only

// below: answered sequences
| RECORD SEQUENCE | self-splicing fitness (ln) |
| --- | --- |
| AAUUAGCAAUAUUACGCAAC | -1.93 |
| AUCUAGCAAUAUUACGUCAC | -2.11 |
| UAUGAGCAAUAUUACGGUAG | -1.88 |
| GGUUAGCAAUAUUACGAAUG | -0.491 |
| AAGGAGCAAUAUUACGCUUG | -0.799 |
| UCUAAGCAAUAUUACGUCGA | 0.0723 |

Return reported self-splicing fitness (ln); argument: GCAGAGCAAUAUUACGCCGA
-0.676

Quick one: self-splicing fitness (ln) of AGGAAGCAAUAUUACGACAU ?
-0.543

// lookup self-splicing fitness (ln) for CCUGAGCAAUAUUACGCCCU
-1.73

Fill in the blank: the reported self-splicing fitness (ln) of GGUCAGCAAUAUUACGGUAG is ____.
-0.967

# get_value(readout='self-splicing fitness (ln)', item= AGGAAGCAAUAUUACGACAG )
-1.64

I'd like to know its self-splicing fitness (ln). The sequence in question is AUAGAGCAAUAUUACGCGCA
-0.253

Which self-splicing fitness (ln) value belongs to GGGCAGCAAUAUUACGCGUA ?
-0.0324

Returns the measured self-splicing fitness (ln) for the input sequence. Input: UGUAAGCAAUAUUACGUACA
-0.557

Name the reported self-splicing fitness (ln) value associated with the sequence GGGUAGCAAUAUUACGCUUA
-0.957
